Every entry's value here was drawn from patent US4284769A.

Test: Polymerization constant Kp of radical initiators in styrene (dilatometer)
Applied conditions: temperature 70 °C, initiator 0.05% by weight for poorly soluble ones, normally 0.2%
Observation type: Kp-value × 10^4

>  <Molecule>
CC(C)(C)OOC(=O)C(C)(C)C [XI, di-t-butyl perpivalate, reference compound]

>  <Assay value>
4.2

$$$$
>  <Molecule>
COC(=O)[C@](C#N)(c1ccc(C)cc1)[C@](C#N)(C(=O)OC)c1ccc(C)cc1 (relative stereo) [IX, reference compound]

>  <Assay value>
1.3

$$$$
>  <Molecule>
COc1nc(OC)nc(C(C#N)(c2ccc(Cl)cc2)C(C#N)(c2ccc(Cl)cc2)c2nc(OC)nc(OC)n2)n1 (centres unmarked)

>  <Assay value>
6.10

$$$$
>  <Molecule>
CCCCCCCCCCCC(=O)OOC(=O)CCCCCCCCCCC [X, dilauroyl peroxide, reference compound]

>  <Assay value>
2.4

$$$$
>  <Molecule>
CCCCCCCCCCCCCCCCCCOc1nc(OCCCCCCCCCCCCCCCCCC)nc(C(C#N)(c2ccc(C)cc2)C(C#N)(c2ccc(C)cc2)c2nc(OCCCCCCCCCCCCCCCCCC)nc(OCCCCCCCCCCCCCCCCCC)n2)n1 (centres unmarked)

>  <Assay value>
3.05

$$$$

###

Test: Polymerization constant Kp of radical initiators in methylmethacrylate (dilatometer)
Applied conditions: temperature 60 °C, initiator 0.05% by weight for poorly soluble ones, normally 0.2%
The label depends only on Kp-value × 10^4: 1 if it is at least 4, -1 if it is smaller.

>  <Compound>
COc1ccc(C(C#N)(c2nc(OC)nc(OC)n2)C(C#N)(c2ccc(OC)cc2)c2nc(OC)nc(OC)n2)cc1 (stereo not drawn)

>  <Assigned label>
-1

$$$$
>  <Compound>
COc1nc(OC)nc(C(C#N)(c2ccc(Cl)cc2)C(C#N)(c2ccc(Cl)cc2)c2nc(OC)nc(OC)n2)n1 (stereo not drawn)

>  <Assigned label>
1

$$$$
>  <Compound>
CCCCCCCCCCCCCCCCCCOc1nc(OCCCCCCCCCCCCCCCCCC)nc(C(C#N)(c2ccc(C)cc2)C(C#N)(c2ccc(C)cc2)c2nc(OCCCCCCCCCCCCCCCCCC)nc(OCCCCCCCCCCCCCCCCCC)n2)n1 (stereo not drawn)

>  <Assigned label>
1

$$$$
>  <Compound>
CSc1nc(SC)nc(C(C#N)(c2ccc(C)cc2)C(C#N)(c2ccc(C)cc2)c2nc(SC)nc(SC)n2)n1 (stereo not drawn)

>  <Assigned label>
1

$$$$
>  <Compound>
COc1nc(OC)nc(C(C#N)(c2ccc(C)cc2)C(C#N)(c2ccc(C)cc2)c2nc(OC)nc(OC)n2)n1 (stereo not drawn)

>  <Assigned label>
1

$$$$
